Tested on: HCT-116 colon
Experiment: NCI-60 one-dose screen, 48 h (100 = growth as untreated, 0 = no growth, -100 = all killed)
Details: 10 µM unless noted
About 83,000 compounds went through this panel and 20% of them were active in at least one assay; those are over-represented in the sample as a whole.
Could you label it 1 if measured growth is 30% or higher, and -1 otherwise?

1. CCNC(=O)Oc1ccc(/C(=C(/C)c2ccc(Cl)cc2)c2ccc(OCCN3CCCC3)cc2)cc1 | 1
2. Cn1c(SC(C(=O)Nc2ccc(F)cc2)c2ccccc2)nc2ccccc2c1=O (centres undefined) | 1
3. IP(CCCCCCCCCCSc1n(Cc2ccc3ccccc3c2)c(-c2ccccc2)c(-c2ccccc2)[n+]1Cc1ccc2ccccc2c1)(c1ccccc1)(c1ccccc1)c1ccccc1 | -1
4. CC1CCc2c(sc3nc(SCC(=O)N/N=C/c4cccc(O)c4O)n(-c4ccccc4)c(=O)c23)C1 (centres undefined) | 1
5. C=CCn1c(SCC(=O)Nc2cccc(C(=O)/C=C/c3ccccc3Cl)c2)nc2ccccc2c1=O | -1
6. NC(=O)c1c(NC(=O)c2cccc(C(F)(F)F)c2F)sc2c1CCC(=O)C2 | -1
7. COc1ccc(Oc2ccc(C3CC(c4cc(OC)c(OC)c(OC)c4)=NN3C(C)=O)cc2)cc1 (centres undefined) | -1
8. O=S(=O)(Nc1ccc(-c2nc(-c3cccc(O)c3)c(-c3ccnc(Br)c3)[nH]2)cc1)c1ccccc1 | -1
9. CCNC(=O)Oc1ccc(/C(=C(/C)c2ccc(Cl)cc2)c2ccc(OCCN(C)C)cc2)cc1 | 1
10. O=c1[nH]c2cc(Cl)ccc2n1C1CCN(c2ccc3nnc(Cl)n3n2)CC1 | 1
11. Cc1ccccc1/C=C/c1nn2c(-c3ccoc3C)nnc2s1 | 1
12. CCn1c2ccc(/C=N/OCCCN(C)C)cc2c2cc(/C=N/OCCCN(C)C)ccc21 | -1
13. COc1cc(/C=C/C(=O)c2ccc(N3CCN(C)CC3)cc2)ccc1F | -1
14. O=C1Nc2ccc(Cl)cc2/C1=C/c1ccc(OCc2ccc(F)cc2)cc1 | 1
15. CN1C(=O)/C(=C/C=C/c2ccco2)SC1=S | 1
16. C#CCOc1ccc(C(Nc2cc(Cl)ccc2Cl)c2nnnn2C2CCCCC2)cc1 (centres undefined) | 1
17. Cc1ccc(/C=C/c2nn3c(-c4ccco4)nnc3s2)cc1 | 1
18. CC(C)C[C@H]1C(=O)O[C@H](C(C)C)C(=O)N(C)[C@@H](C(C)C)C(=O)O[C@H](C(C)C)C(=O)N(C)[C@@H](C(C)C)C(=O)O[C@H](C(C)C)C(=O)N1C | -1
19. COc1ccc(-c2nc3cc(Cl)c(Cl)cc3n2CC(=O)N=Nc2c(O)[nH]c3ccc(Br)cc23)cc1 | -1

###

System: K-562 leukemia
Assay: NCI-60 one-dose screen, 48 h
Settings: 10 µM unless noted
About 83,000 compounds went through this panel and 20% of them were active in at least one assay; those are over-represented in the sample as a whole. Active and inactive are the calls of the source. Rule for the calls: active = growth percent below 10; inactive = the rest.
Outcomes: active, inactive

1. Cc1cc(NS(=O)(=O)c2ccc(-c3cnc(C4CC4)o3)cc2)ccc1I | inactive
2. CC1(C)CC[C@]2(C(=O)N3CCCNCC3)CC[C@]3(C)C(=CC[C@@H]4[C@@]5(C)CCC(=O)C(C)(C)[C@@H]5CC[C@]43C)[C@H]2C1 | inactive
3. CC1=CC(=O)CC(C)(C)[C@@]1(O)/C=C/C(C)=C\C(=O)O | active
4. COc1ccc(-c2nnc(SCc3ccc(O)c4ncccc34)o2)cc1 | inactive
5. Cn1cc(-c2nnc(N)nc2-c2cn(C)c3ccc(F)cc23)c2cc(F)ccc21 | inactive
6. CCn1c2ccc(/C=N/NS(=O)(=O)CCN(C)C)cc2c2cc(/C=N/NS(=O)(=O)CCN(C)C)ccc21 | inactive
7. Oc1ccc(CSc2nnc(-c3ccc(Cl)cc3)o2)c2cccnc12 | inactive
8. Oc1ccc(-c2nnc(SCc3ccc(O)c4ncccc34)n2-c2ccccc2)cc1 | inactive
9. CCCCCCNC(=O)Oc1ccc(/C(=C(\C)c2ccc(Cl)cc2)c2ccc(OCCN(C)C)cc2)cc1 | active
10. CCCCCCCCNC(=O)c1ccc(Cn2c(CCCC)nc3c(N)nc4ccccc4c32)cc1 | active
11. Cn1c2ccccc2c2c3c(c4c5ccc(Br)cc5oc4c21)C(=O)N(O)C3=O | inactive
12. N/C(=N\c1nc2ccc([N+](=O)[O-])cc2s1)C(Cl)(Cl)Cl | inactive
13. CCC(C)[C@H]1OC(=O)[C@H](C(C)C)N(C)C(=O)[C@@H](C(C)C)OC(=O)[C@H](C(C)C)N(C)C(=O)[C@@H](C(C)CC)OC(=O)[C@H](C(C)C)N(C)C1=O (stereo partly drawn) | active
14. C[C@@H]1C[C@H]2C(=O)OCC(NC(=O)[C@H](Cc3cc(F)cc(F)c3)NC(=O)Nc3ccc(Cl)cc3F)C(=O)N3CCC[C@H]3C(=O)N3CCCC[C@H]3C(=O)N[C@@H](C)C(=O)N2C1 (stereo partly drawn) | inactive
15. C(=C(\C1=NCCN1)n1cnc2ccccc21)/c1cccc2ccccc12 | inactive
16. COc1ccc(-c2nc3cc(Cl)c(Cl)cc3n2CC(=O)N=Nc2c(O)[nH]c3ccc(Br)cc23)cc1 | inactive
17. CCC(=O)Nc1cc(Nc2cc(NC3CC3)n3ncc(C#N)c3n2)ccc1C | inactive
18. Clc1ccc(-c2csc(N/N=C/c3nc4ccccc4n3C3CC3)n2)cc1 | inactive
